- measured.on: T1, TerR35-138 (Aspergillus terreus SBUG844, UniProt Q0D1P5 35-138)
- T1 sequence: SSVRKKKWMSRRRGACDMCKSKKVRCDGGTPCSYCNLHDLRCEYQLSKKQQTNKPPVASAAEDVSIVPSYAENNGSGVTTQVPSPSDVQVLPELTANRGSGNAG
- test.method.notes: SPR; molar ratio 0.95; SPR (Biacore 2000, SA-coated CM3 chip): 10 mM HEPES pH 7.4, 150 mM NaCl, 0.005% P20, 5 mM beta-mercaptoethanol, 1 uM ZnCl2, 25 C; protein 12.5-6400 nM; 1:1 model with mass transport
- test.parameters: protein: recombinant; (pET-29a; theoretical mass 11.35 kDa); label: biotin on one strand; 18 bp duplex
pKd: −log10 of the molar value.
readout: pKd

binder | data.value
BS2m2 (3'-CGG to CAA) (dsDNA) DNA 1: TTATCGGACTTTCAAATT DNA 2: AATTTGAAAGTCCGATAA | 6.44
